For each entry below, report its Optimal pH value.
Assay: Enzyme properties of AtLOG 1, 2, 3, 4, 5, 7 and 8 proteins having iPRMP as substrate
Format: biochemical, Arabidopsis thaliana
Give your result in pH as a bare value.

Returns the measured Optimal pH for the input molecule. Input: AtLOG8: Arabidopsis thaliana LOG homolog protein, gene At5g11950, amino acid sequence SEQ ID NO: 16, purified from E. coli (protein, listed as Arabidopsis sp.) MEDNQRSRFRKICVFCGSHSGHREVFSDAAIELGNELVKRKIDLVYGGGSVGLMGLISRRVYEGGLHVLGIIPKALMPIEISGETVGDVRVVADMHERKAAMAQEAEAFIALPGGYGTMEELLEMITWSQLGIHKKTVGLLNVDGYYNNLLALFDTGVEEGFIKPGARNIVVSAPTAKELMEKMEEYTPSHMHVASHESWKVEELGDYPGQENKPQ 7.0

// returns reported Optimal pH for input AtLOG2: Arabidopsis thaliana LOG homolog protein, gene At2g35990, amino acid sequence SEQ ID NO: 6, purified from E. coli (protein, listed as Arabidopsis sp.) MEETKSRFRRICVFCGSSSGNKTTYHDAALQLAHQLVERNIDLVYGGGSVGLMGLISQAVHDGGRHVLGIIPKSLAPREITGESIGEVITVSTMHQRKAEMGRQADAFIALPGGYGTFEELLEVITWSQLGIHTKPVGLLNVDGFYDSLLTFIDKAVDEGFVSSTARRIIVSAPNAPQLLQLLEEYVPKHDDFVSKMVWDNTTDAFTLEGDSF 6.5

Request the reported Optimal pH associated with AtLOG7: Arabidopsis thaliana LOG homolog protein, gene At5g06300, amino acid sequence SEQ ID NO: 14, purified from E. coli (protein, listed as Arabidopsis sp.) MEETKSRFKRICVFCGSSSGKKPSYQEAAIQLGNELVERRIDLVYGGGSVGLMGLVSQAVHHGGRHVLGVIPKTLMPREITGETIGEVKAVADMHQRKAEMARQADAFIALPGGYGTLEELLEVITWAQLGIHRKPVGLLNVDGYYNSLLTFIDKAVDEGFISPMARRIIVSAPNAKELVRQLEEYEPEFDEITSKLVWDEVDRISYVPGSEVATAT 6.5

Would you kindly share the measured Optimal pH for AtLOG1: Arabidopsis thaliana LOG homolog protein, gene At2g28305, amino acid sequence SEQ ID NO: 4, purified from E. coli (protein, listed as Arabidopsis sp.) MEIESKFKRICVFCGSSAGNKVSYKDAAIELGTELVSRNIDLVYGGGSIGLMGLISQAVFNGGRHVIGVIPKTLMPREITGETVGEVKAVADMHQRKAEMAKHSDAFIALPGGYGTLEELLEVITWAQLGIHDKPVGLLNVEGYYNSLLSFIDKAVEEGFISPTARHIIVSAPSAKELVKKLEDYVPRHEKVASKKSWEMEQIGLSPTCEISR ? 6.5

What does the record list as Optimal pH for AtLOG4: Arabidopsis thaliana LOG homolog protein, gene At3g53450, amino acid sequence SEQ ID NO: 10, purified from E. coli (protein, listed as Arabidopsis sp.) MEVNNETMQKSKFGRICVFCGSSQGKKSSYQDAAVDLGNELVLRNIDLVYGGGSIGLMGLVSQAVHDGGRHVIGVIPKTLMPRELTGETVGEVRAVADMHQRKAEMARHSDAFIALPGGYGTLEELLEVITWAQLGIHDKPVGLLNVDGYYNSLLSFIDKAVEEGFISTNARQIIISAPTAKELVKKLEEYSPCHESVATKLCWEIERIDYSSED ? 6.5
